- Test system: HEK-293T
- assay_details: Multiplex assay against HEK293T
- Format: toxicity, cell-based
- test_settings: human, 48 h, 1 µM, compound concentration 1 uM, replicate 2
Label y when Population Mitochondria Different-Phenotype (%) is strictly below 20%; at or above that, label n.

Record excerpt, results attached:
CC(C)(C)c1cc(NC(=O)Nc2ccc(-c3cn4c(n3)sc3cc(OCCN5CCOCC5)ccc34)cc2)no1 [QUIZARTINIB] :: n
O=C1[C@H](Cc2ccc(O)cc2)N2C(=O)CCN(C(=O)NCc3ccccc3)[C@H]2CN1Cc1cccc2ccccc12 :: n
N#Cc1c(Oc2cccc(OS(=O)(=O)CCCC(F)(F)F)c2)cccc1C(F)(F)F :: n

Prompt line: Lab log: compare recorded Population Mitochondria Different-Phenotype (%) with 20%; is it strictly lower for CC[C@@H](C)Nc1nc(C)nc2c(-c3ccc(OC)nc3C)c(C)nn12 [PEXACERFONT] ?
Response line: n

Prompt line: Strictly below 20%: is that where Population Mitochondria Different-Phenotype (%) of CC(/C=C1\SC(=S)N(CCCC(=O)Nc2ccc(C(=O)O)c(O)c2)C1=O)=C\c1ccccc1 sits?
Response line: n

Prompt line: Population Mitochondria Different-Phenotype (%) under 20%? Item: CCCCC(=O)N(Cc1ccc(-c2ccccc2-c2nnn[nH]2)cc1)[C@H](C(=O)O)C(C)C
Response line: y

----------
- System: U2OS
- assay_details: Multiplex assay against U2OS
- Assay type: toxicity, cell-based
- test_settings: human, 24 h, 10 µM, compound concentration 10 uM, replicate 2
readout: Population Pyknosed Nuclei (%)
# output: bare number, implied unit %

Cl.N=C(N)NC(=O)Cc1c(Cl)cccc1Cl [GUANFACINE HYDROCHLORIDE] :: 7
CCCCC(=O)N(Cc1ccc(-c2ccccc2-c2nnn[nH]2)cc1)[C@H](C(=O)O)C(C)C :: 9
Cc1sc2c(c1C)C(c1ccc(Cl)cc1)=N[C@@H](CC(=O)NCCCCCCCCNC(=O)COc1cccc3c1C(=O)N(C1CCC(=O)NC1=O)C3=O)c1nnc(C)n1-2 (stereo partly specified) :: 7
Cl.NCCc1ccc(O)c(O)c1 [DOPAMINE HYDROCHLORIDE] :: 7
N#Cc1cc(F)cc(-c2nc(-c3ccc(F)cn3)no2)c1 :: 4

Prompt line: Write down the reported Population Pyknosed Nuclei (%) of CC[C@@H](C)Nc1nc(C)nc2c(-c3ccc(OC)nc3C)c(C)nn12 [PEXACERFONT] , test system: U2OS.
Response line: 8

Prompt line: Find Population Pyknosed Nuclei (%) (U2OS) for the entry C[C@H](N)COC(=O)[C@@H](CCCCN)NC(=O)Cc1c(-c2ccc3ccccc3c2)[nH]c2c1ccc1ccccc12
Response line: 2

Prompt line: Missing value: Population Pyknosed Nuclei (%), U2OS, entry O=C1[C@H](Cc2ccc(O)cc2)N2C(=O)CCN(C(=O)NCc3ccccc3)[C@H]2CN1Cc1cccc2ccccc12 . Fill in?
Response line: 16

Prompt line: Observed Population Pyknosed Nuclei (%) on U2OS for COc1ccccc1N1CCN(C[C@@H](C(=O)NC(C)(C)C)c2ccccc2)CC1.Cl.Cl , please.
Response line: 15

Prompt line: What value of Population Pyknosed Nuclei (%) on U2OS does Cc1noc(-c2ccc(-c3ccc(CC(=O)O)cc3)cc2)c1NC(=O)O[C@H](C)c1ccccc1Cl have?
Response line: 7

Prompt line: Provide value of Population Pyknosed Nuclei (%) for this record tested with U2OS: O=C(NCCN1CCC(n2c(=O)[nH]c3cc(Cl)ccc32)CC1)c1ccc(F)cc1 [HALOPEMIDE]
Response line: 12

----------
- Test system: Fibroblast
- assay_details: Multiplex assay against human fibroblast
- Type: toxicity, cell-based
- test_settings: 48 h, 10 µM, compound concentration 10 uM, replicate 2
readout: Population Pyknosed Nuclei (%)
Expressed in %, but write only the number.

Br.CS(=O)(=O)Nc1c(O)ccc2c1CCCC2C1=NCCN1 (stereo not drawn) :: 7
CN1CCN(c2cc(-c3ccccc3)nc(N)n2)CC1 :: 10
NCCc1cn(S(=O)(=O)c2c(Cl)nc3sccn23)c2ccccc12.O=C(O)C(=O)O :: 8
COC[C@@H](c1ccc(C(F)(F)F)cc1)N1CCN(C2(C)CCN(C(=O)c3c(C)ncnc3C)CC2)C[C@@H]1C.O=C(O)/C=C\C(=O)O [VICRIVIROC MALEATE] :: 9
CN[C@@H](C)C(=O)N[C@H](C(=O)N1CCC[C@H]1C(=O)Nc1snnc1-c1ccccc1)C1CCCCC1 [GDC-0152] :: 18

Prompt line: Report Population Pyknosed Nuclei (%) for CC(/C=C1\SC(=S)N(CCCC(=O)Nc2ccc(C(=O)O)c(O)c2)C1=O)=C\c1ccccc1 tested on Fibroblast.
Response line: 19

Prompt line: What is its Population Pyknosed Nuclei (%) for Fibroblast? Entry: CN(C)C(=O)Cn1cc(-c2ccc(-c3cncc4ccccc34)cc2)cn1
Response line: 7

Prompt line: // lookup Population Pyknosed Nuclei (%) | system=Fibroblast | key= CC(C)COc1ccc(CNC(=O)N(Cc2ccc(F)cc2)C2CCN(C)CC2)cc1 [PIMAVANSERIN]
Response line: 16

----------
// values below are reported Population Normal (%)
- Tested on: Fibroblast
- assay_details: Multiplex assay against human fibroblast
- Assay type: toxicity, cell-based
- test_settings: 48 h, 10 µM, compound concentration 10 uM, replicate 2
Supply the numeric figure in %, leaving out any unit text.

Solved cases (4 shown):
COC[C@@H](c1ccc(C(F)(F)F)cc1)N1CCN(C2(C)CCN(C(=O)c3c(C)ncnc3C)CC2)C[C@@H]1C.O=C(O)/C=C\C(=O)O [VICRIVIROC MALEATE] :: 79
O=C(NCCN1CCC(n2c(=O)[nH]c3cc(Cl)ccc32)CC1)c1ccc(F)cc1 [HALOPEMIDE] :: 94
Br.CS(=O)(=O)Nc1c(O)ccc2c1CCCC2C1=NCCN1 (stereo unspecified) :: 98
Cc1onc(-c2ccccc2Cl)c1C(=O)N(C)c1ccc(Cl)cc1 :: 98

Kindly review the next compound as well.
Prompt line: Lookup: Population Normal (%) / Fibroblast / Cc1cnc(-c2cc(N3CCN(C(=O)CCS(C)(=O)=O)CC3)ncc2Cl)c(C)c1
Response line: 96

----------
- Tested on: Fibroblast
- assay_details: Multiplex assay against human fibroblast
- Assay type: toxicity, cell-based
- test_settings: 24 h, 1 µM, compound concentration 1 uM, replicate 2
readout: Population Pyknosed Nuclei (%)
Expressed in %, but write only the number.

Guide cases for Population Pyknosed Nuclei (%), answers given:
Br.CS(=O)(=O)Nc1c(O)ccc2c1CCCC2C1=NCCN1 (stereo unspecified) :: 14
O=C1[C@H](Cc2ccc(O)cc2)N2C(=O)CCN(C(=O)NCc3ccccc3)[C@H]2CN1Cc1cccc2ccccc12 :: 22
CC(/C=C1\SC(=S)N(CCCC(=O)Nc2ccc(C(=O)O)c(O)c2)C1=O)=C\c1ccccc1 :: 19
Cc1c(CC(=O)O)c2cccnc2n1Cc1ccc(S(C)(=O)=O)cc1C(F)(F)F :: 17
Cc1noc(-c2ccc(-c3ccc(CC(=O)O)cc3)cc2)c1NC(=O)O[C@H](C)c1ccccc1Cl :: 12
Cc1onc(-c2ccccc2Cl)c1C(=O)N(C)c1ccc(Cl)cc1 :: 23
CC[C@@H](C)Nc1nc(C)nc2c(-c3ccc(OC)nc3C)c(C)nn12 :: 22
Cc1sc2c(c1C)C(c1ccc(Cl)cc1)=N[C@@H](CC(=O)NCCCCCCCCNC(=O)COc1cccc3c1C(=O)N(C1CCC(=O)NC1=O)C3=O)c1nnc(C)n1-2 (stereo partly specified) :: 25
C[C@H](N)COC(=O)[C@@H](CCCCN)NC(=O)Cc1c(-c2ccc3ccccc3c2)[nH]c2c1ccc1ccccc12 :: 20
CN1CCN(c2cc(-c3ccccc3)nc(N)n2)CC1 :: 18

Prompt line: I would be grateful if you could share the reported Population Pyknosed Nuclei (%) for CC(=O)Nc1cccc2c1c(Sc1ccc(Cl)cc1)c(C)n2CC(=O)O .
Response line: 15

Prompt line: Field request: Population Pyknosed Nuclei (%) | item: O=C(NCCN1CCC(n2c(=O)[nH]c3cc(Cl)ccc32)CC1)c1ccc(F)cc1 [HALOPEMIDE]
Response line: 26

Prompt line: I am curious: what Population Pyknosed Nuclei (%) value has been reported for COc1ccccc1N1CCN(C[C@@H](C(=O)NC(C)(C)C)c2ccccc2)CC1.Cl.Cl ?
Response line: 19

Prompt line: Record request: Population Pyknosed Nuclei (%) value, item O=C(CCCc1ccccc1)Nc1nc2ccccc2c(=O)s1
Response line: 26

Prompt line: Population Pyknosed Nuclei (%) lookup needed for COc1cccc2c1c(NS(=O)(=O)c1ccc(Cl)s1)nn2Cc1cccc(CNC(=O)C(C)(C)O)c1 , thanks.
Response line: 22

Prompt line: Can you look up the measured Population Pyknosed Nuclei (%) of CN(C)C(=O)Cn1cc(-c2ccc(-c3cncc4ccccc34)cc2)cn1 for me?
Response line: 20

----------
- System: Fibroblast
- assay_details: Multiplex assay against human fibroblast
- Format: toxicity, cell-based
- test_settings: 12 h, 1 µM, compound concentration 1 uM, replicate 2
readout: Population Healthy Nuclei (%)
Field format: number, assumed %, no unit text.

NCCc1cn(S(=O)(=O)c2c(Cl)nc3sccn23)c2ccccc12.O=C(O)C(=O)O :: 37
Cc1c(CC(=O)O)c2cccnc2n1Cc1ccc(S(C)(=O)=O)cc1C(F)(F)F :: 48
CCCCCC(O)/C=C/[C@H]1C(=O)CC(O)C1C/C=C\CCCC(=O)O (some centres not stated) :: 41
CC(C)COc1ccc(CNC(=O)N(Cc2ccc(F)cc2)C2CCN(C)CC2)cc1 :: 42

Prompt line: For the molecule shown here, C[C@H](N)COC(=O)[C@@H](CCCCN)NC(=O)Cc1c(-c2ccc3ccccc3c2)[nH]c2c1ccc1ccccc12 , give the reported Population Healthy Nuclei (%).
Response line: 51

Prompt line: Any idea what its Population Healthy Nuclei (%) is? The molecule is COc1ccccc1N1CCN(C[C@@H](C(=O)NC(C)(C)C)c2ccccc2)CC1.Cl.Cl
Response line: 43

Prompt line: State the recorded Population Healthy Nuclei (%) for this entry: CCCCC1=NC2(CCCC2)C(=O)N1Cc1ccc(-c2ccccc2-c2nnn[nH]2)cc1
Response line: 55

Prompt line: Quick check: Population Healthy Nuclei (%) of Cc1onc(-c2ccccc2Cl)c1C(=O)N(C)c1ccc(Cl)cc1 ?
Response line: 50

Prompt line: Return reported Population Healthy Nuclei (%); argument: CCc1cc2cc(NS(=O)(=O)c3ccc(C#N)cc3)ccc2n(CC)c1=O
Response line: 40

Prompt line: Looking for the measured Population Healthy Nuclei (%) of CCCCC(=O)N(Cc1ccc(-c2ccccc2-c2nnn[nH]2)cc1)[C@H](C(=O)O)C(C)C , can you help?
Response line: 54

Prompt line: Query (molecule): CN1CCN(c2cc(-c3ccccc3)nc(N)n2)CC1 ; field requested: Population Healthy Nuclei (%)
Response line: 45

Prompt line: I have this molecule here, CC(C)c1noc(N2CCC(COc3ccc(-c4ccc(S(C)(=O)=O)cc4)nc3)CC2)n1 , and I need its recorded Population Healthy Nuclei (%).
Response line: 50
